Where do these numbers come from? They come from paper PMC11067709.

# method-notes: clinical
# condition-details: male, human, in vivo, po, 15 mg, T max,ss, monotherapy: meloxicam 15 mg QD, 7 days, Arm E; median [minimum–maximum]
metric-name: Tmax (h)
Quick note: give the figure in h, leave out the unit.

Ask: Give the measured Tmax of Cc1cnc(NC(=O)C2=C(O)c3ccccc3S(=O)(=O)N2C)s1 .
Reply: 5

* * *

# method-notes: clinical
# condition-details: male, human, in vivo, po, 15 mg, T max,ss, combination: meloxicam 15 mg QD + fexuprazan 40 mg BID, 7 days, Arm E; median [minimum–maximum]
metric-name: Tmax (h)
Quick note: give the figure in h, leave out the unit.

Ask: Give the measured Tmax of Cc1cnc(NC(=O)C2=C(O)c3ccccc3S(=O)(=O)N2C)s1 .
Reply: 4.5

* * *

# method-notes: Pharmacokinetic interaction study, fexuprazan and celecoxib
# Assay type: in vivo, healthy Korean male subjects
# condition-details: male, human, plasma, po, 200 mg, AUCτ,ss, combination: celecoxib 200 mg BID + fexuprazan 40 mg BID, 5 days, Arm A; mean ± SD
metric-name: AUC
State the value, then name its unit.

Ask: Give the measured AUC of Cc1ccc(-c2cc(C(F)(F)F)nn2-c2ccc(S(N)(=O)=O)cc2)cc1 .
Reply: 8110 ng·h/mL

* * *

# method-notes: Pharmacokinetic interaction study, fexuprazan and celecoxib
# Type: in vivo, healthy Korean male subjects
# condition-details: male, human, plasma, po, 200 mg, t 1/2, monotherapy: celecoxib 200 mg BID, 5 days, Arm A; mean ± SD
metric-name: half-life
State the value, then name its unit.

Ask: Give the measured half-life of Cc1ccc(-c2cc(C(F)(F)F)nn2-c2ccc(S(N)(=O)=O)cc2)cc1 .
Reply: 9.4 h
